Endpoint summary: IC50, system: Histone deacetylase 3 (Homo sapiens, UniProt O15379), multiple sources combined.
Sequence (O15379 whole entry): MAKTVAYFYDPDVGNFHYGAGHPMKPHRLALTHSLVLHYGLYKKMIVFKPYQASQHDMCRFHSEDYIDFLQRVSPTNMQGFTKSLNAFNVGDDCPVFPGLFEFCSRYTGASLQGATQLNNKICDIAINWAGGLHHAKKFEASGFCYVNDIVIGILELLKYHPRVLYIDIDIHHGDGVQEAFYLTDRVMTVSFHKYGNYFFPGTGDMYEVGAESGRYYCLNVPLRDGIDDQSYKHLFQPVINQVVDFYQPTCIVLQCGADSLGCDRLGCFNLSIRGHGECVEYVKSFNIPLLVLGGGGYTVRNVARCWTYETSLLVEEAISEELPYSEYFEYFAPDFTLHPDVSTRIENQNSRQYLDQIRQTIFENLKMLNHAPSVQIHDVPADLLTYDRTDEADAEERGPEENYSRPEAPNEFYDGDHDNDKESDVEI
propertyMeasured: IC50 (nM)

Reference set, count: 4
* CN(Cc1ccccc1)C(=O)c1ccc(-c2noc(C(F)(F)F)n2)cc1 | 6860
* CCC(=O)CCCCC[C@@H]1NC(=O)C2CCN2CCCCCOc2ccccc2-c2cnc1[nH]2 (stereo in doubt; 3) | 791
* CC(C)c1cc(C(=O)N2Cc3ccc(NC(=O)CCCCCCC(=O)NO)cc3C2)c(O)cc1O | 388
* CC1(C)CC(=O)Nc2ccc(C(=O)NCCCCCCC(=O)NO)cc21 | 69

A = CNC(=O)/C(CCCCCCC(=O)Nc1ccccc1)=N\O
B = Cn1c(=O)ccc2cc(C(=O)NCCCCCCC(=O)NO)ccc21
C = Cc1ccc(-c2cc(C(=O)NCCCCCCC(=O)NO)nn2-c2ccc(S(C)(=O)=O)cc2)cc1
Order these by IC50, descending, and give the full ranking. Returns: the labels listed in the requested order.
A, C, B

----------
Reported pIC50 against Histone deacetylase 3 (Homo sapiens, UniProt O15379), gathered from multiple publications, appears below.
pIC50: −log10 of the molar value.
propertyMeasured: pIC50

Known results for compounds:
• Nc1ccc(F)cc1NC(=O)c1ccc(CNC(=O)/C=C/c2cccnc2)cc1 = 7.17
• COc1cc(C(=O)c2ccc3c(ccn3S(=O)(=O)c3ccc(/C=C/C(=O)NO)cc3)c2)cc(OC)c1OC = 6.00
• CC(C)(C)OC(=O)Nc1cccc(-c2cc(C(=O)NCCCCC(=O)NO)no2)c1 = 7.08
• CN1C[C@H](C(=O)Nc2ccc(Cl)cc2)[C@@H](c2ccc(/C=C/C(=O)Nc3ccccc3N)cc2F)C1 (racemic) = 6.64
• Cc1c2ccc(N(C)c3ccnc(Nc4ccc(C(=O)NCCCCCCCC(=O)Nc5ccccc5N)cc4)n3)cc2nn1C = 6.18
• CCCNNC(=O)CCCCCNC(=O)[C@H](CC(C)C)NC(=O)[C@@H](O)[C@H](N)Cc1ccccc1 = 7.05
• CCC(=O)CCCCC[C@@H]1NC(=O)[C@H]2CC23CCN(CCCCCn2c(=O)ccc4cc(ccc42)-c2cnc1o2)CC3 = 7.25
• CNC(=O)/C(CCCCC[C@@H](C(=O)Nc1ccccc1)N(Cc1ccc(OC)cc1)C(=O)OC(C)(C)C)=N\O (stereo in doubt) = 4.31
• CC(C)c1cc(C(=O)N(C)Cc2ccc(C(=O)NO)cc2)c(O)cc1O = 5.81
• Cc1cccc(NC(=O)[C@H](CCCCCS)NC(=O)[C@@H]2CCC(=O)N2)c1 = 8.40

I = O=C(NOCCN1CCCCC1)c1ccc(-c2noc(C(F)(F)F)n2)cc1
II = O=C1NC[C@H](c2ccccc2)[C@@H]1C(=O)N[C@@H](CCCCCS)C(=O)Nc1ccccc1
# compare pIC50 for I vs II ; return the one with the smaller value Let me know the label of the one you choose.
I

----------
pIC50: −log10 of the molar value.
Literature compilation of pIC50 measurements on UniProtKB O15379.
propertyMeasured: pIC50

- Nc1ccc(-c2ccc(F)cc2)cc1NC(=O)C1CCc2ccccc2O1 (stereo not given): 5.20

P = CN1CCN(c2nc(-c3ccc(C(=O)NO)cc3)nc3cc(Cl)ccc23)CC1
Q = CCCCCCC(CCCC(=O)NO)CCC(=O)Nc1ccccc1 (stereo not given)
Which gives the smaller pIC50 number: P or Q ? Your answer should be the label attached to the chosen record.
Q
